# Assay target: human Retinoid X Receptor beta (RXRb), RXRB (gene 6257)
# Test details: ATG_RXRb_TRANS: Attagene TRANS-FACTORIAL HepG2 Assay for human Retinoid X Receptor beta (RXRb) (AID 2283013)
Inconclusive results are not listed. The source made the active and inactive calls. The calls were made as follows: active = hit-call score of the fitted dose curve at least 0.9, where 1 is the maximum; inconclusive = response in the unintended direction; inactive = score below 0.9.

{"Record smiles": "FC(F)(F)C(F)(F)C(F)(F)C(F)(F)C(F)(F)C(F)(F)CCI", "AC50": "inactive"}
{"Record smiles": "CC1(C)NC(=O)NC1=O", "AC50": "inactive"}
{"Record smiles": "Cc1ccc(C(C)C)c(O)c1", "AC50": "40.6 µM (active)"}
{"Record smiles": "CCCCOC(=O)CCCCCCCCC(=O)OCCCC", "AC50": "inactive"}
